Test system: NCI-H647
Test: relative viability (nuclei count vs DMSO), 5 days (fraction); higher = more cells survive
Conditions: first compound 0.8 µM
Field: label. Allowed values: fulfilled (relative viability < 0.4) or not fulfilled (relative viability >= 0.4).

1. O=c1cc(-c2cccc3c2Sc2ccccc2S3)oc(N2CCOCC2)c1 + CC1(C)CCC(c2ccc(Cl)cc2)=C(CN2CCN(c3ccc(C(=O)NS(=O)(=O)c4ccc(N[C@H](CCN5CCOCC5)CSc5ccccc5)c(S(=O)(=O)C(F)(F)F)c4)cc3)CC2)C1 [Navitoclax] (partner 0.5 µM): not fulfilled

Consider the molecule O=c1cc(-c2cccc3c2Sc2ccccc2S3)oc(N2CCOCC2)c1 + CC(C)C[C@H](NC(=O)[C@H](Cc1ccccc1)NC(=O)c1cnccn1)B(O)O [Bortezomib] (partner 0.002 µM) . Is its relative viability strictly less than 0.4?
not fulfilled

API: query returns whether the molecule falls strictly under 0.4 in relative viability. Query: COc1nc(C)cnc1NS(=O)(=O)c1cccnc1-c1ccc(-c2nnco2)cc1 [Zibotentan] + N=C(N)NC(=N)NCCc1ccccc1 [Phenformin] (partner 250 µM)
fulfilled

Just wondering, is relative viability of COc1nc(C)cnc1NS(=O)(=O)c1cccnc1-c1ccc(-c2nnco2)cc1 [Zibotentan] + Nc1nc2[nH]cc(CCc3ccc(C(=O)N[C@@H](CCC(=O)O)C(=O)O)cc3)c2c(=O)[nH]1 [Pemetrexed] (partner 0.2 µM) below 0.4?
fulfilled

Is relative viability strictly under 0.4 for the entry O=c1cc(-c2cccc3c2Sc2ccccc2S3)oc(N2CCOCC2)c1 + CS(=O)(=O)N1CCN(Cc2cc3nc(-c4cccc5[nH]ncc45)nc(N4CCOCC4)c3s2)CC1 [Pictilisib] (partner 1 µM) ?
fulfilled

---

Test system: NCI-H322M
Test: relative viability (nuclei count vs DMSO), 5 days (fraction); higher = more cells survive
Details: first compound 1 µM
PROPERTY MEASURED: relative viability
I'd appreciate a reply containing only the number, no unit.

Below, each entry is followed by its recorded relative viability result.
1) CCN(CC)CCCCNc1ncc2cc(-c3cc(OC)cc(OC)c3)c(NC(=O)NC(C)(C)C)nc2n1 + CCNC(=O)c1noc(-c2cc(C(C)C)c(O)cc2O)c1-c1ccc(CN2CCOCC2)cc1 [Luminespib] (partner 0.01 µM): 0.799
2) O=c1cc(N2CCOCC2)oc2c(-c3cccc4c3sc3ccccc34)cccc12 + NC(=O)Nc1cc(-c2cccc(F)c2)sc1C(=O)N[C@H]1CCCNC1 [AZD7762] (partner 0.2 µM): 0.581
3) CCN(CC)CCCCNc1ncc2cc(-c3cc(OC)cc(OC)c3)c(NC(=O)NC(C)(C)C)nc2n1 + NC(=O)Nc1cc(-c2cccc(F)c2)sc1C(=O)N[C@H]1CCCNC1 [AZD7762] (partner 0.2 µM): 0.559
4) O=c1cc(N2CCOCC2)oc2c(-c3cccc4c3sc3ccccc34)cccc12 + C[C@@H](Oc1cc(-c2cnn(C3CCNCC3)c2)cnc1N)c1c(Cl)ccc(F)c1Cl [Crizotinib] (partner 1 µM): 0.84

Then this compound:
GET /value?item= CCN(CC)CCCCNc1ncc2cc(-c3cc(OC)cc(OC)c3)c(NC(=O)NC(C)(C)C)nc2n1 + Cc1cc(Nc2cc(N3CCN(C)CC3)nc(Sc3ccc(NC(=O)C4CC4)cc3)n2)n[nH]1 [Tozasertib] (partner 0.1 µM) &field=relative viability returns 0.448

---

Tested on: SK-MES-1
Assay: relative viability (nuclei count vs DMSO), 5 days (fraction); higher = more cells survive
Details: first compound 0.03162 µM
PROPERTY MEASURED: relative viability
Give a plain numeric answer without units written out.

Some compounds with known relative viability results, for comparison:
1. O=c1cc(N2CCOCC2)oc2c(-c3cccc4c3sc3ccccc34)cccc12 + CCNC(=O)c1noc(-c2cc(C(C)C)c(O)cc2O)c1-c1ccc(CN2CCOCC2)cc1 [Luminespib] (partner 0.01 µM): 0.767
2. CCN(CC)CCCCNc1ncc2cc(-c3cc(OC)cc(OC)c3)c(NC(=O)NC(C)(C)C)nc2n1 + CC(=O)Nc1cccc(-n2c(=O)n(C3CC3)c(=O)c3c(Nc4ccc(I)cc4F)n(C)c(=O)c(C)c32)c1 [Trametinib] (partner 0.02 µM): 0.562
3. O=c1cc(N2CCOCC2)oc2c(-c3cccc4c3sc3ccccc34)cccc12 + CS(=O)(=O)CCNCc1ccc(-c2ccc3ncnc(Nc4ccc(OCc5cccc(F)c5)c(Cl)c4)c3c2)o1 [Lapatinib] (partner 2 µM): 0.53

The compound listed as CCN(CC)CCCCNc1ncc2cc(-c3cc(OC)cc(OC)c3)c(NC(=O)NC(C)(C)C)nc2n1 + O=C(CCCCCCC(=O)Nc1ccccc1)NO [Vorinostat] (partner 1 µM) has a reported relative viability of 1.17

Input O=c1cc(N2CCOCC2)oc2c(-c3cccc4c3sc3ccccc34)cccc12 + CC(=O)c1c(C)c2cnc(Nc3ccc(N4CCNCC4)cn3)nc2n(C2CCCC2)c1=O [Palbociclib] (partner 0.5 µM) . Output relative viability: 0.343

---

Test system: NCI-H1993
Test: relative viability (nuclei count vs DMSO), 5 days (fraction); higher = more cells survive
Conditions: first compound 0.2 µM
For each record, check the reported relative viability: if it is below 0.9 write Criterion met, else write Criterion not met.

I'd appreciate it if you could check whether COCC1(CO)C(=O)C2CCN1CC2 (stereo unspecified) [PRIMA-1MET] + Cc1nc(NC(=O)N2CCC[C@H]2C(N)=O)sc1-c1ccnc(C(C)(C)C(F)(F)F)c1 [Alpelisib] (partner 2 µM) has relative viability smaller than 0.9.
Criterion met

---

Tested on: HCC-366
Experiment: relative viability (nuclei count vs DMSO), 5 days (fraction); higher = more cells survive
Conditions: first compound 1 µM
Below: a set of entries, each annotated with reported relative viability.
# answer = number (no unit)

1) O=c1cc(N2CCOCC2)oc2c(-c3cccc4c3sc3ccccc34)cccc12 + NC(=O)Nc1cc(-c2cccc(F)c2)sc1C(=O)N[C@H]1CCCNC1 [AZD7762] (partner 0.2 µM): 0.288
2) O=c1cc(N2CCOCC2)oc2c(-c3cccc4c3sc3ccccc34)cccc12 + N=C(N)NC(=N)NCCc1ccccc1 [Phenformin] (partner 250 µM): 0.668
3) CCN(CC)CCCCNc1ncc2cc(-c3cc(OC)cc(OC)c3)c(NC(=O)NC(C)(C)C)nc2n1 + O=C(CCCCCCC(=O)Nc1ccccc1)NO [Vorinostat] (partner 1 µM): 0.288

Now for a further molecule.
Fill in: HCC-366 relative viability for CCN(CC)CCCCNc1ncc2cc(-c3cc(OC)cc(OC)c3)c(NC(=O)NC(C)(C)C)nc2n1 + CC(=O)c1c(C)c2cnc(Nc3ccc(N4CCNCC4)cn3)nc2n(C2CCCC2)c1=O [Palbociclib] (partner 0.5 µM) = 0.441

---

Tested on: NCI-H2228
Experiment: relative viability (nuclei count vs DMSO), 5 days (fraction); higher = more cells survive
Settings: first compound 0.1 µM
PROPERTY MEASURED: relative viability
Field format: numeric only.

# count of solved cases: 3
1) O=c1cc(N2CCOCC2)oc2c(-c3cccc4c3sc3ccccc34)cccc12 + O=C(CCCCCCC(=O)Nc1ccccc1)NO [Vorinostat] (partner 1 µM): 0.562
2) O=c1cc(N2CCOCC2)oc2c(-c3cccc4c3sc3ccccc34)cccc12 + N=C(N)NC(=N)NCCc1ccccc1 [Phenformin] (partner 250 µM): 0.262
3) O=c1cc(N2CCOCC2)oc2c(-c3cccc4c3sc3ccccc34)cccc12 + O=C(c1cc(Cc2n[nH]c(=O)c3ccccc23)ccc1F)N1CCN(C(=O)C2CC2)CC1 [Olaparib] (partner 8 µM): 0.891

// below: relative viability requested for another compound
Short answer for O=c1cc(N2CCOCC2)oc2c(-c3cccc4c3sc3ccccc34)cccc12 + CC(C)C[C@H](NC(=O)[C@H](Cc1ccccc1)NC(=O)c1cnccn1)B(O)O [Bortezomib] (partner 0.002 µM) : relative viability was 0.926

---

Test system: NCI-H1993
Assay: relative viability (nuclei count vs DMSO), 5 days (fraction); higher = more cells survive
Conditions: first compound 0.253 µM
PROPERTY MEASURED: relative viability
Answer with a number only.

1. COc1nc(C)cnc1NS(=O)(=O)c1cccnc1-c1ccc(-c2nnco2)cc1 [Zibotentan] + CS(=O)(=O)N1CCN(Cc2cc3nc(-c4cccc5[nH]ncc45)nc(N4CCOCC4)c3s2)CC1 [Pictilisib] (partner 1 µM): 0.736
2. O=c1cc(-c2cccc3c2Sc2ccccc2S3)oc(N2CCOCC2)c1 + C[C@@H](Oc1cc(-c2cnn(C3CCNCC3)c2)cnc1N)c1c(Cl)ccc(F)c1Cl [Crizotinib] (partner 1 µM): 1.01
3. COc1nc(C)cnc1NS(=O)(=O)c1cccnc1-c1ccc(-c2nnco2)cc1 [Zibotentan] + C[C@]1(O)C[C@@H](c2nc(-c3ccc4ccc(-c5ccccc5)nc4c3)c3c(N)nccn32)C1 [Linsitinib] (partner 1 µM): 0.838

Then there is this compound:
// compound O=c1cc(-c2cccc3c2Sc2ccccc2S3)oc(N2CCOCC2)c1 + CCNC(=O)c1noc(-c2cc(C(C)C)c(O)cc2O)c1-c1ccc(CN2CCOCC2)cc1 [Luminespib] (partner 0.01 µM) , assay NCI-H1993, relative viability value: 0.934

The values you see were collected from the supplement of paper PMC10307832.
